Listed here are binders together with their documented Relative Inhibition of IL-4 induced pSTAT6 IC50.
Target: T1, hIL-4Rα on cells (human, UniProt P24394 26-825)
T1 sequence: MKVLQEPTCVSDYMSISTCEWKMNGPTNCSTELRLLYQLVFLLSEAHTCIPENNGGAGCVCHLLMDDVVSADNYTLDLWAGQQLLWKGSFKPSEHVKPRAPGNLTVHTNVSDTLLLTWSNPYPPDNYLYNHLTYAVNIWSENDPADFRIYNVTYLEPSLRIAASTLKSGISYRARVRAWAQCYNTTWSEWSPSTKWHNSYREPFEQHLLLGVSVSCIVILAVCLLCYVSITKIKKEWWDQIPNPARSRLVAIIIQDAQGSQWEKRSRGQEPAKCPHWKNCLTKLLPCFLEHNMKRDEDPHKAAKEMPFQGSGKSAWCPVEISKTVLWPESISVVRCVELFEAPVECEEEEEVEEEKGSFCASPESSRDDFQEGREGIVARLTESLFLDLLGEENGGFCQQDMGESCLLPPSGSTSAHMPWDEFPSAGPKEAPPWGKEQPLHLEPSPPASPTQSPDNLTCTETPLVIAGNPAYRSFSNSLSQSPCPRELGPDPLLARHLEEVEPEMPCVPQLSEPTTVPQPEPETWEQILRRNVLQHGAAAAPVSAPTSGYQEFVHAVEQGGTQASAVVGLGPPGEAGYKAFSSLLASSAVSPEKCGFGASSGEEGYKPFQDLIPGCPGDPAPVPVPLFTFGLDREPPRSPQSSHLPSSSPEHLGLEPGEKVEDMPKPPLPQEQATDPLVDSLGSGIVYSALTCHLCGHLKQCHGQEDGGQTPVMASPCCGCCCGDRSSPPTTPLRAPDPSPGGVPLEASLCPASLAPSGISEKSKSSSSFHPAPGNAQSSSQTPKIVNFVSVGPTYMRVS
Test: cell-based or functional assay

Known results for binders:
Binder	Assay Result
Construct 43 (mAb482) (antibody, IgG4, V domains shown, VH/VL only) VH: EVQLVESGGGLEQPGGSLRLSCAGSGFTFRDFAMTWVRQAPGKGLEWVSSISGGGGNTYYADSVKGRFTISRDNSKNTLYLQMNSLRAEDTAVYYCAKDRLSIAVRPRYYGLDVWGQGTTVTVSS VL: DIVMTQSPLSLPVTPGEPASISCTSSQSLLYSIGYNYVDWYLQKSGQSPQLLIYLGSKRASGVPDRFSGSGSGTDFTLKISRVEAEDVGFYYCMQSLTSPYTFGQGTKLEIK	0.633 relative to dupilumab
Construct 5 (mAb414) (antibody, IgG4, V domains shown, VH/VL only) VH: EVQLVESGGGLEQPGGSLRLSCAGSGFTFRDFAMTWVRQAPGKGLEWVSSISGSGDNIYYADSVKGRFTISRDNSKNTLYLQMNSLRAEDTAVYYCAKDRVSITIRPRYYGLDVWGQGTTVTVSS VL: DIVMTQSPLSLPVTPGEPASISCRSSQSLLYSIGKNYVDWYLQKSGQSPQLLIYLGNKRASGVPDRFSGSGSGTDFTLKISRVEAEDVGFYYCMQSLQTPYVFGQGTKLEIK	0.78 relative to dupilumab
Construct 18 (mAb426) (antibody, IgG4, V domains shown, VH/VL only) VH: EVQLVESGGGLEQPGGSLRLSCAGSGFTFRDFAMTWVRQAPGKGLEWVSSISGSGDNTYYADSVKGRFTISRDNSKNTLYLQMNSLRAEDTAVYYCAKDRLSKTIRPRYYGLDVWGQGTTVTVSS VL: DIVMTQSPLSLPVTPGEPASISCTSSQSLLYSIGKNYVDWYLQKSGQSPQLLIYLGNKRASGVPDRFSGSGSGTDFTLKISRVEAEDVGFYYCMQSLTSPYTFGQGTKLEIK	0.517 relative to dupilumab
Construct 35 (mAb467) (antibody, IgG4, V domains shown, VH/VL only) VH: EVQLVESGGGLEQPGGSLRLSCAGSGFTFRTYAMTWVRQAPGKGLEWVSSISGSGGNTYYADSVKGRFTISRDNSKNTLYLQMNSLRAEDTAVYYCAKDRVSITIRPRYYGLDVWGQGTTVTVSS VL: DIVMTQSPLSLPVTPGEPASISCTSSQSLLYSIGKNYVDWYLQKSGQSPQLLIYEGNNRATGVPDRFSGSGSGTDFTLKISRVEAEDVGFYYCMQSLTSPYTFGQGTKLEIK	0.766 relative to dupilumab

Now examine the next entry.
Give reported Relative Inhibition of IL-4 induced pSTAT6 IC50 value for Construct 29 (mAb437) (antibody, IgG4, V domains shown, VH/VL only) VH: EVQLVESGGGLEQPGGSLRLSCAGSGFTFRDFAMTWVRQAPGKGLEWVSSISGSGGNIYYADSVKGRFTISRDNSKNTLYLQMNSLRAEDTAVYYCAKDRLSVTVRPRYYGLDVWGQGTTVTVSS VL: DIVMTQSPLSLPVTPGEPASISCTSSQSLLYSIGYNYVDWYLQKSGQSPQLLIYLGNKRASGVPDRFSGSGSGTDFTLKISRVEAEDVGFYYCMQSLTSPYTFGQGTKLEIK
0.63 relative to dupilumab
